System: wheat (TRZAW)
Assay: Test 30 growth chamber, postemergence
Format: in vivo, Triticum aestivum
Conditions: 18 DAA, Glycerol 7100 g a.i./ha
reported_endpoint: TRZAW Obs (%)
State just the number; it will be interpreted in %.

Task item: Report the value of TRZAW Obs obtained on wheat (TRZAW) for OCC(O)CO [Glycerol] .
Reply: 0

---

Test system: sorghum (SORVU)
Experiment: Test 28 greenhouse, postemergence
Type: in vivo, Sorghum vulgare
Conditions: 26 DAA, Isoxadifen-ethyl 512 g a.i./ha
reported_endpoint: SORVU Obs (%)
State just the number; it will be interpreted in %.

Task item: Query SORVU Obs for "CCOC(=O)C1=NOC(c2ccccc2)(c2ccccc2)C1"
Reply: 0

---

Test system: barley (HORVX)
Assay: Test 30 growth chamber, postemergence
Format: in vivo, Hordeum vulgare
Conditions: 18 DAA, Glycerol 14200 g a.i./ha
reported_endpoint: HORVX Obs (%)
State just the number; it will be interpreted in %.

Task item: Query HORVX Obs for "OCC(O)CO"
Reply: 0

---

System: barley (HORVX)
Assay: Test 30 growth chamber, postemergence
Assay type: in vivo, Hordeum vulgare
Conditions: 18 DAA, Cpd 1 4 g a.i./ha
Protocol: A growth chamber test was conducted to evaluate the effects on the plant species wheat (TRZAW, Triticum aestivum L.) and barley (HORVX, Hordeum vulgare L.) with mixtures of Compound 1 and Compound 2 with glycerol. Wheat and barley seeds were planted in a sandy loam soil having 0.9% organic matter and a pH of 6.3. […] Wheat and barley plants were treated postemergence at the two leaf growth stage for Compound 1 and at the three leaf growth stage for Compound 2. Each treatment was replicated one time. […]
reported_endpoint: HORVX Obs (%)
State just the number; it will be interpreted in %.

Task item: Query HORVX Obs for "Nc1nc(C2CC2)nc(C(=O)O)c1Cl"
Reply: 20

---

Tested on: wheat (TRZAW)
Experiment: Test 28 greenhouse, post- and preemergence
Assay type: in vivo, Triticum aestivum
Conditions: preemergence; 26 DAA; Isoxadifen-ethyl 1024 g a.i./ha
reported_endpoint: TRZAW Obs
Remember to put the unit after the number in your answer.

Task item: Report the value of TRZAW Obs obtained on wheat (TRZAW) for "CCOC(=O)C1=NOC(c2ccccc2)(c2ccccc2)C1" .
Reply: 0%

---

Tested on: wheat (TRZAW)
Experiment: Test 30 growth chamber, postemergence
Type: in vivo, Triticum aestivum
Conditions: 18 DAA, Cpd 1 4 g a.i./ha
reported_endpoint: TRZAW Obs (%)
State just the number; it will be interpreted in %.

Task item: Query TRZAW Obs for "Nc1nc(C2CC2)nc(C(=O)O)c1Cl"
Reply: 35

---

System: sorghum (SORVU)
Test: Test 28 greenhouse, postemergence
Assay type: in vivo, Sorghum vulgare
Settings: 26 DAA, Isoxadifen-ethyl 256 g a.i./ha
Description: A greenhouse test was conducted to evaluate the effects on the plant species corn (ZEAMD, Zea mays ssp. indentata), sorghum (SORVU, Sorghum vulgare L.), dry-seeded rice (ORYSA, Oryza sativa L.), wheat (TRZAW, Triticum aestivum L.), ivyleaf morningglory (IPOHE, Ipomoea hederacea (L.) JACQ.), and barnyardgrass (ECHCG, Echinochloa crus-galli (L.) P. BEAUV.), of mixtures of Compound 2 with isoxadifen-ethyl. […]
reported_endpoint: SORVU Obs (%)
State just the number; it will be interpreted in %.

Task item: Query SORVU Obs for "CCOC(=O)C1=NOC(c2ccccc2)(c2ccccc2)C1"
Reply: 0

All figures here come from patent US20100285959A1.
